# System: DeltatarO mutant
# test protocol: S. aureus survival, RN4220 and DeltatarO strains – OD600, teichoic acid synthesis inhibitors, primary screen (AID 463173)
# run conditions: S. aureus RN4220 wild type/DeltatarO growth, OD600, 18 h, stronger effect = lower value, screened at 18.75 µg/mL (by protocol)
Hit rate of the full screen: of about 52,000 compounds, about 4,300 (8.3%) were called active. Only a selection was taken, and actives are over-represented in it overall.
Param label: returns Satisfied when survival < 80%, returns Not satisfied otherwise, including exact equality.

{"compound": "CCc1nc2ccc(C(=O)NCCc3ccc(SC)cc3)cc2nc1CC", "target or test system": "DeltatarO mutant", "group label": "Satisfied"}
{"compound": "CCCc1nc2ccccc2n2c(-c3cccc(C)c3)c3c(=O)n(C)c(=O)n(C)c3c12", "target or test system": "DeltatarO mutant", "group label": "Satisfied"}
{"compound": "COc1ccc(N2CCN(C(=O)c3ccc(NC(=O)c4nsc5ccccc45)cc3)CC2)cc1", "target or test system": "DeltatarO mutant", "group label": "Not satisfied"}
{"compound": "CN1CCN(C2(CNC(=O)c3ccc([N+](=O)[O-])cc3)CCCCC2)CC1", "target or test system": "DeltatarO mutant", "group label": "Not satisfied"}
{"compound": "Cc1ccc(N2C(=O)CCSC23C(=O)N(Cc2ccc(F)cc2)c2ccccc23)cc1 (stereo not given)", "target or test system": "DeltatarO mutant", "group label": "Not satisfied"}
